Would you kindly list Percent Inhibition IL-13 R130Q (333 ng/ml) to Ra2 for each of these binders?
Molecular target: human IL-13 R130Q variant (R110Q of the mature chain) (human) (UniProt P35225)
Experiment: IL-13Ra2 binding inhibition ELISA, crude supernatant
Answer shape: numeric part, then the unit.

QUERY: Need Percent Inhibition IL-13 R130Q (333 ng/ml) to Ra2, item Lc7Hc1 (antibody, human IgG1, V domains shown) VL: DIQLTQSPSSLSASVGDRVTITCRASKSISKYLAWYRQKPGKVPKLLIYSGSTLQSGVPSRFSGSGSGTDFTLTISSLQPEDVATYYGQQHNEYPYTFGQGTKLEIK VH: QVTLKESGPALVKPTQTLTLTCTFSGFSLSTYGMGVGWIRQPPGKALEWLAHIWWDDVKRYNPALKSRLTISKDTSKNQVVLTMTNMDPVDTATYYCARMGSDYDVWFDYWGQGTLVTVSS
RESULT: 6%

QUERY: Try this binder next: Lc15Hc1 (antibody, human IgG1, V domains shown) VH: QVTLKESGPALVKPTQTLTLTCTFSGFSLSTYGMGVGWIRQPPGKALEWLAHIWWDDVKRYNPALKSRLTISKDTSKNQVVLTMTNMDPVDTATYYCARMGSDYDVWFDYWGQGTLVTVSS VL: VIWMTQSPSLLSASTGDRVTISCRASKSISKYLAWYQQKPGKAPELLIYSGSTLQSGVPSRFSGSGSGTDFTLTISCLQSEDFATYYCQQHNEYPYTFGGGTKVEIK
RESULT: 44%

QUERY: Try this binder next: Lc3Hc6 (antibody, human IgG1, V domains shown) VH: QVQLVESGGGVVQPGRSLRLSCAASGFSLSTYGMGVGWVRQAPGKGLEWVAHIWWDDVKRYNPALKSRFTISRDNSKNTLYLQMNSLRAEDTAVYYCARMGSDYDVWFDYWGQGTLVTVSS VL: AIQLTQSPSSLSASVGDRVTITCRASKSISKYLAWYQQKPGKAPKLLIYSGSTLQSGVPSRFSGSGSGTDFTLTISSLQPEDFATYYCQQHNEYPYTFGGGTKVEIK
RESULT: 14%

QUERY: Try this binder next: Lc7Hc6 (antibody, human IgG1, V domains shown) VL: DIQLTQSPSSLSASVGDRVTITCRASKSISKYLAWYRQKPGKVPKLLIYSGSTLQSGVPSRFSGSGSGTDFTLTISSLQPEDVATYYGQQHNEYPYTFGQGTKLEIK VH: QVQLVESGGGVVQPGRSLRLSCAASGFSLSTYGMGVGWVRQAPGKGLEWVAHIWWDDVKRYNPALKSRFTISRDNSKNTLYLQMNSLRAEDTAVYYCARMGSDYDVWFDYWGQGTLVTVSS
RESULT: 4%
